molecular target: androgen receptor (Homo sapiens, UniProt P10275, Q868H); construct: a human breast tumor cell line expressing androgen receptor; endogenous in cells; host or cells: MDA-MB453-MMTV clone 54-19 (only the MMTV-luciferase reporter was transfected); experiment: AR antagonist cell assay (MDA-MB453-MMTV clone 54-19, luciferase reporter); type: cell-based; conditions: MDA-MB453-MMTV clone 54-19 cells, 100 pM DHT, 17 hr; mean of multiple tests; read-out: AR Cell IC50
Rule for this label: T means IC50 is less than 300 nM; F means IC50 is at least 300 nM.

Example cases with answers are listed next.
{"molecule": "CCC1CCCCC1Oc1ccc(C#N)c(Cl)c1 (stereo not shown) [Example 27]", "assayed-system": "androgen receptor (Homo sapiens, UniProt P10275, Q868H)", "classification": "F"}
{"molecule": "CC(C)[C@H]1CC[C@H](C)C[C@@H]1Oc1ccc(C#N)c(Cl)c1", "assayed-system": "androgen receptor (Homo sapiens, UniProt P10275, Q868H)", "classification": "F"}
{"molecule": "CCC1CCCCC1Oc1ccc(C#N)c(C(F)(F)F)c1 (stereo not shown)", "assayed-system": "androgen receptor (Homo sapiens, UniProt P10275, Q868H)", "classification": "F"}
{"molecule": "N#Cc1ccc(O[C@H]2CCCC[C@@H]2c2ccccc2)cc1C(F)(F)F", "assayed-system": "androgen receptor (Homo sapiens, UniProt P10275, Q868H)", "classification": "F"}
{"molecule": "CC1CCCC(C)C1Oc1ccc(C#N)c(Cl)c1 (stereo not shown)", "assayed-system": "androgen receptor (Homo sapiens, UniProt P10275, Q868H)", "classification": "F"}

Here's an entry: C[C@@H]1CCCC[C@@H]1Oc1ccc(C#N)c(Cl)c1 . Is its IC50 below 300 nM?
T

Hello, is IC50 of the following molecule strictly smaller than 300 nM? CCC1CCCCC1Oc1ccc(C#N)c(Cl)c1 (stereo not shown) [Example 22]
F

For this molecule, is IC50 lower than 300 nM? C=C(C)[C@H]1CC[C@H](C)[C@@H](Oc2ccc(C#N)c(Cl)c2)C1
T

Dear colleague, could you confirm whether IC50 of C[C@@H]1CCCC[C@@H]1Oc1ccc(C#N)c(C(F)(F)F)c1 falls below 300 nM? Thanks.
F

---

molecular target: hAR (Homo sapiens); construct: made in house; host or cells: baculovirus/Sf9 insect cells; test: Competitive binding analysis on baculovirus/Sf9 generated hAR extracts with 3H-DHT tracer; conditions: hAR extract, 1 nM 3H-DHT, one hour at 4° C.; mean of multiple tests; read-out: AR Binding IC50
So basically: is IC50 under 400 nM? Then true (1). Not under? Then false (0).

Please determine if N#Cc1ccc(OC2CCCCC2)cc1Cl [Example 45, 2-Chloro-4-cyclohexyloxy-benzonitrile] is below 400 nM in terms of IC50.
true (1)

In the record for C[C@H]1CC(Oc2ccc(C#N)c(Cl)c2)C[C@H](C)C1 (some centres unmarked) [Example 65] , is IC50 less than 400 nM?
false (0)

IC50 strictly < 400 nM for this molecule? CC(C)[C@H]1CC[C@H](C)C[C@@H]1Oc1ccc(C#N)c(Cl)c1 [Example 47]
true (1)

Criterion: IC50 strictly below 400 nM. Is it met by C[C@H]1CC[C@@H](Oc2ccc(C#N)c(Cl)c2)CC1 [Example 54] ?
true (1)

Answer whether the molecule C[C@H]1CCC[C@@H]1Oc1ccc(C#N)c(C(F)(F)F)c1 (relative stereo) [Example 2] has IC50 strictly less than 400 nM
true (1)

is_below(IC50, 400 nM) for C[C@H]1CC[C@@H](Oc2ccc(C#N)c(C(F)(F)F)c2)CC1 [Example 16] ?
false (0)

---

Target: androgen receptor (Homo sapiens, UniProt P10275, Q868H)
Construct: a human breast tumor cell line expressing androgen receptor; endogenous in cells; host or cells: MDA-MB453-MMTV clone 54-19 (only the MMTV-luciferase reporter was transfected)
Sequence (P10275 1-920 Q868H): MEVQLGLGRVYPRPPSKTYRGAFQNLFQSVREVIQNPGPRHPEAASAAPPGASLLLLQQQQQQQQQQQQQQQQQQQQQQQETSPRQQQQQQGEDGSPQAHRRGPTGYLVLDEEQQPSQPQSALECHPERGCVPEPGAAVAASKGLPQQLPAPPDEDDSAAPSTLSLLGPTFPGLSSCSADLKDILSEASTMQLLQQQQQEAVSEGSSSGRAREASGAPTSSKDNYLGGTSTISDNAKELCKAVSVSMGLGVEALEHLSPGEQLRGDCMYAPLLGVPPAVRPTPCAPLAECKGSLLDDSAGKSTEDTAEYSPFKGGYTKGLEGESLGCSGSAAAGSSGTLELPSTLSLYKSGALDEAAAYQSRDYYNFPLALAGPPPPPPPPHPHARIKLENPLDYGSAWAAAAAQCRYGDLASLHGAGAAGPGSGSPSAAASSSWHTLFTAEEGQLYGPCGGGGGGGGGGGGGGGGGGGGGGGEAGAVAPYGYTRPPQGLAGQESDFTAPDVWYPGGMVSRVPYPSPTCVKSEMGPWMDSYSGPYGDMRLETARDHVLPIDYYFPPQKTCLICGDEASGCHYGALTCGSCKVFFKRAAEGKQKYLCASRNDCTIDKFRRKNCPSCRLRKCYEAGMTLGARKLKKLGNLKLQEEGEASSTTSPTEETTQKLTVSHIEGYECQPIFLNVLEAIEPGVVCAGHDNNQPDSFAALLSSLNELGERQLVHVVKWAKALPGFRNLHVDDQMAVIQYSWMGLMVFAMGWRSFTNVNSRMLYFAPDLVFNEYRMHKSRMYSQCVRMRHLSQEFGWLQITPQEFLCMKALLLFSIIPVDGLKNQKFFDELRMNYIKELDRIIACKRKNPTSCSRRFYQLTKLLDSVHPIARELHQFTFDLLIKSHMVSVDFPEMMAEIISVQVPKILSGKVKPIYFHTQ
Experiment: AR antagonist cell assay (MDA-MB453-MMTV clone 54-19, luciferase reporter)
Assay type: cell-based
Conditions: MDA-MB453-MMTV clone 54-19 cells, 100 pM DHT, 17 hr; mean of multiple tests; read-out: AR Cell IC50
IC50 values, listed per item
Give a bare numeral; the unit nM is implied.

{"compound": "CO[C@H]1CCCC[C@H]1Oc1ccc(C#N)c(Cl)c1 (relative stereo)", "assayed-system": "androgen receptor (Homo sapiens, UniProt P10275, Q868H)", "IC50, nM": 300}
{"compound": "N#Cc1ccc(O[C@@H]2CCCC[C@H]2C#N)cc1C(F)(F)F (single isomer, unassigned)", "assayed-system": "androgen receptor (Homo sapiens, UniProt P10275, Q868H)", "IC50, nM": 196}
{"compound": "CC1CCC(Oc2ccc(C#N)c(Cl)c2)C1 (centres unmarked)", "assayed-system": "androgen receptor (Homo sapiens, UniProt P10275, Q868H)", "IC50, nM": 202}

Turning now to a further compound:
Return reported IC50; argument: C[C@H]1CCCC[C@@H]1Oc1ccc(C#N)c(Cl)c1
46

---

Readings of IC50 for the listed compounds
Target: hAR (Homo sapiens, UniProt P10275)
Construct: made in house; host or cells: baculovirus/Sf9 insect cells
Assay: Competitive binding analysis on baculovirus/Sf9 generated hAR extracts with 3H-DHT tracer
Conditions: hAR extract, 1 nM 3H-DHT, one hour at 4° C.; mean of multiple tests; read-out: AR Binding IC50
Method: The description below describes how the assay was carried out. Competitive binding analysis was performed on baculovirus/Sf9 generated hAR extracts in the presence or absence of different concentrations of test agent and a fixed concentration of ^3H-dihydrotestosterone (^3H-DHT) as tracer. […] Compound binding affinity to the hAR is expressed as the concentration of compound at which one half of the maximum binding is inhibited.
Return type: number; implicit unit nM.

{"compound": "CCCCC1(Oc2ccc(C#N)c(Cl)c2)CCCC1", "assay-result": 206}
{"compound": "C[C@@H]1CCC[C@H](Oc2ccc(C#N)c(Cl)c2)C1", "assay-result": 218}
{"compound": "C[C@@H]1CCCC[C@H]1Oc1ccc(C#N)cc1Cl", "assay-result": 343}

So what IC50 did N#Cc1ccc(OC2CCC2)cc1Cl get with hAR (Homo sapiens, UniProt P10275)?
297

---

Target: hAR (Homo sapiens)
Construct: made in house; host or cells: baculovirus/Sf9 insect cells
Assay: Competitive binding analysis on baculovirus/Sf9 generated hAR extracts with 3H-DHT tracer
Settings: AR Binding IC50, hAR extract, 1 nM 3H-DHT, one hour at 4° C.; mean of multiple tests
Description: The description below describes how the assay was carried out. Competitive binding analysis was performed on baculovirus/Sf9 generated hAR extracts in the presence or absence of different concentrations of test agent and a fixed concentration of ^3H-dihydrotestosterone (^3H-DHT) as tracer. […] Compound binding affinity to the hAR is expressed as the concentration of compound at which one half of the maximum binding is inhibited.
assay-metric: pIC50
Note: pIC50 values are expressed as the negative base-10 logarithm of concentration in M.

{"molecule": "CO[C@H]1CCC[C@H]1Oc1ccc(C#N)c(Cl)c1 (relative stereo)", "pIC50": 6.76}

What measured pIC50 is associated with CC1CCCC(C)C1Oc1ccc(C#N)c(Cl)c1 (stereo not drawn) on hAR (Homo sapiens)?
7.48

What measured pIC50 is associated with CCC1CCCCC1Oc1ccc(C#N)c(Cl)c1 (stereo not drawn) [Example 27] on hAR (Homo sapiens)?
7.52

Could you share what pIC50 was measured for C[C@@H]1CCCC[C@@H]1Oc1ccc(C#N)c(Cl)c1 , tested on hAR (Homo sapiens)?
7.51

Quick check: pIC50 on hAR (Homo sapiens), item C=CCC1(Oc2ccc(C#N)c(C(F)(F)F)c2)CCCCC1 ?
7.32

What measured pIC50 is associated with C[C@H]1CCCC[C@@H]1Oc1ccc(C#N)c(Cl)c1 [Example 41] on hAR (Homo sapiens)?
7.74
